Biological target: Acetylcholinesterase (Electrophorus electricus)
Assay: Inhibition of electric eel AChE at 100 uM preincubated for 30 mins before substrate addition by Ellman's assay
Use True when the recorded inhibition is no lower than 10%; use False when it is lower.

• O=C(NCc1ccccc1)O[C@H]1CO[C@@H]2/C(=N/O)CO[C@H]12 = True
• [N-]=[N+]=N[C@@H]1CO[C@H]2[C@@H]1OC[C@@H]2OC(=O)NCc1ccccc1 = False
• O=C(NCc1ccccc1)O[C@H]1CO[C@@H]2/C(=N/OC(=O)c3ccccc3)CO[C@H]12 = False
• O=C(NCc1ccccc1)O[C@H]1CO[C@H]2[C@@H]1OC[C@H]2NC(=O)c1ccccc1 = True
• CCCNC(=O)O[C@H]1CO[C@H]2[C@@H]1OC[C@H]2OC(=O)NCCC = True
• CCCCNC(=O)O[C@H]1CO[C@H]2[C@@H]1OC[C@H]2OC(=O)NCCCC = True
• O=C(NCc1ccccc1)O[C@H]1CO[C@H]2[C@@H]1OC[C@H]2OCc1ccccc1 = True
• O=C(Nc1ccccc1)O[C@H]1CO[C@H]2[C@@H]1OC[C@H]2OC(=O)Nc1ccccc1 = True
• CN1C(=O)CO[C@@H]2[C@@H](OC(=O)NCc3ccccc3)CO[C@@H]21 = False
• CCOC(=O)/C=C1\CO[C@@H]2[C@@H](OC(=O)NCc3ccccc3)CO[C@H]12 = False
• O=C(NCc1ccccc1)O[C@H]1CO[C@H]2[C@@H]1OC[C@H]2OC(=O)NCc1ccccc1 = True

----------
Target: Cholinesterase (Homo sapiens)
Sequence (P06276 whole entry): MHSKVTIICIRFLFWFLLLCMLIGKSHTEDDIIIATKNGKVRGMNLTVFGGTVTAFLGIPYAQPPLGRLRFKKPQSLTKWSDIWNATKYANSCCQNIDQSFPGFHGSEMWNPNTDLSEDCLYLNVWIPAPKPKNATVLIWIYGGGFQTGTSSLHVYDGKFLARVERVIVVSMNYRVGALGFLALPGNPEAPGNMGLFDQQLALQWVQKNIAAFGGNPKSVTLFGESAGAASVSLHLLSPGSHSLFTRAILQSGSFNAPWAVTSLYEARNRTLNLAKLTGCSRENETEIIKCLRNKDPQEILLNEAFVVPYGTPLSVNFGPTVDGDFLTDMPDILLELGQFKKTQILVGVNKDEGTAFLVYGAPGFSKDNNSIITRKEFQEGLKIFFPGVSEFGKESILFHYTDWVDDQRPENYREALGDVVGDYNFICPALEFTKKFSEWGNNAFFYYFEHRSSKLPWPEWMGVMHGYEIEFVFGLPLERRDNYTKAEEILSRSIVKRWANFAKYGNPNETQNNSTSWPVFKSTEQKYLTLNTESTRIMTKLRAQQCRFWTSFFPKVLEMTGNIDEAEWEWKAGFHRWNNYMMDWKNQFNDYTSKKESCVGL
Test: Inhibition of human plasma BuChE preincubated for 30 mins before substrate addition by Ellman's assay
Let's look at some compounds and their measured IC50.
Property label: IC50 (µM)

- O=C(NCc1ccccc1)O[C@H]1CO[C@H]2[C@@H]1OC[C@H]2OCc1ccccc1: 0.052
- CCCNC(=O)O[C@H]1CO[C@H]2[C@@H]1OC[C@H]2OC(=O)NCCC: 10.4
- CCCCNC(=O)O[C@H]1CO[C@H]2[C@@H]1OC[C@H]2OC(=O)NCCCC: 1.22
- O=C(NCc1ccccc1)O[C@H]1CO[C@H]2[C@@H]1OC[C@H]2OC(=O)NCc1ccccc1: 0.4
- CCOC(=O)/C=C1\CO[C@@H]2[C@@H](OC(=O)NCc3ccccc3)CO[C@H]12: 4.8
- O=C(NCc1ccccc1)O[C@H]1CO[C@@H]2C=CO[C@H]12: 10.2

----------
Molecular target: UniProt P06276
Experiment: Inhibition of human plasma BuChE at 100 uM preincubated for 30 mins before substrate addition by Ellman's assay
Type: cell-free
Property label: inhibition (%)

- O=C1CO[C@H]2[C@H](OC[C@@H]2OC(=O)NCc2ccccc2)O1 (relative stereo): 56
- O=C(NCc1ccccc1)O[C@H]1CO[C@@H]2/C(=N/O)CO[C@H]12: 40
- CCNC(=O)O[C@H]1CO[C@H]2[C@@H]1OC[C@H]2OC(=O)NCC: 55.1
- [N-]=[N+]=N[C@@H]1CO[C@H]2[C@@H]1OC[C@@H]2OC(=O)NCc1ccccc1: 50.4
- O=C(NCc1ccccc1)O[C@H]1CO[C@@H]2/C(=N/OC(=O)c3ccccc3)CO[C@H]12: 64.8
- O=C(NCc1ccccc1)O[C@H]1CO[C@H]2[C@@H]1OC[C@H]2NC(=O)c1ccccc1: 88
- O=C(NCc1ccccc1)O[C@H]1CO[C@@H]2C(=O)CO[C@H]12: 46
- O=C(Nc1ccc(Cl)cc1)O[C@H]1CO[C@H]2[C@@H]1OC[C@H]2OC(=O)Nc1ccc(Cl)cc1: 7.96
- CN1C(=O)CO[C@@H]2[C@@H](OC(=O)NCc3ccccc3)CO[C@@H]21: 63
- O=C(Nc1ccccc1)O[C@H]1CO[C@H]2[C@@H]1OC[C@H]2OC(=O)Nc1ccccc1: 20.6
- O=C(Nc1ccc([N+](=O)[O-])cc1)O[C@H]1CO[C@H]2[C@@H]1OC[C@H]2OC(=O)Nc1ccc([N+](=O)[O-])cc1: 17.4
